# credit: PubChem BioAssay (NCI)

Test system: UACC-62 melanoma
measurement-notes: NCI tumour cell line growth inhibition, 48 h; in the data active = GI50 below about 0.43 µM; inactive = the rest
# valid calls are Y = active, N = inactive; nothing else

Here are 6 molecules together with their reported answers.
{"molecule": "O=C1c2ccccc2-c2c1c1ccccc1c(=O)n2CCCCNCCCn1c2c(c3ccccc3c1=O)C(=O)c1ccccc1-2", "discrete-label": "N"}
{"molecule": "Clc1ccc(CSC(Cn2ccnc2)c2ccc(Cl)cc2Cl)cc1 (stereo not drawn)", "discrete-label": "N"}
{"molecule": "COc1cc(C(=O)/C=C/c2c(C)n([O-])c3ccc(C)cc3[n+]2=O)cc(OC)c1OC", "discrete-label": "N"}
{"molecule": "Cn1cc(-c2ccc3c(Nc4cccc(NC(=O)Nc5cccc(F)c5)c4)ncnc3c2)cn1", "discrete-label": "N"}
{"molecule": "COc1ccc2[nH]c(=O)c3c4ccccc4cn3c2c1", "discrete-label": "Y"}
{"molecule": "Cc1nc(-c2cccc(Nc3nc(-c4ccc(Cl)cc4)cs3)c2)cs1", "discrete-label": "N"}

For CC12CCC3C(CCC4Cc5[nH]c6ccccc6c5CC43C)C1CCC2O (stereo not drawn) , what call appears in the results of this test?
Y

How was "Nc1c(C(=O)c2cccc(CCCN3CCOCC3)c2)cnn1-c1ccc(F)cc1" classified in this test?
N

Hi, do you know how OC(c1cccc(-n2ccc(C(F)(F)F)n2)c1)c1cnccc1NC1CCCCCC1 (stereo not drawn) came out in this test?
N

GET /call?item= "COc1ccc2oc(=O)cc(C(c3ccc[nH]3)c3ccc[nH]3)c2c1" returns the recorded outcome of this test.
Y

Hi team, can someone confirm the assay call for CCSCC1CC(O)(c2ccccc2)C(c2ccccc2)C(c2ccc(Cl)cc2)O1 (stereo not drawn) ?
N

Dear all, I need the recorded test outcome for COc1cc(C2c3[nH]c4ccccc4c3C[C@H]3COC(=O)N23)cc(OC)c1OC (stereo partly drawn) , thank you.
Y

Give the logged outcome of this assay for the following molecule: "CCOC(=O)c1c2c(c(O)c3ccccc3c(O)n(Cc3ccc(OC)cc3)c1C)C(=O)C=CC2=O"
N

Could you please tell me the result logged for "C=CC[n+]1c(/C=C/C=C2\N(C)c3ccccc3C2(C)C)sc2ccc(OC)cc21" in this assay?
Y

Could you kindly confirm the outcome this assay logged for "CCNC(=O)[C@@H]1CCCN2C(=O)CC[C@H](NC(=O)[C@H](Cc3ccc(OP(=O)(O)O)cc3)NC(C)=O)C(=O)N12" ?
N

Tell me the assay call for "COc1cc2c3c(n(CCCN)c(=O)c2cc1OC)-c1ccccc1C3=O" please.
N

Hi team, can someone confirm the assay call for "COc1cc2c(cc1O)CC[C@@H]1[C@@H]2CC[C@]2(C)[C@@H](NCCN(C)C)CC[C@@H]12" ?
Y

// return assay outcome for N#Cc1c(-c2ccccc2)nc(SCC2CO2)nc1N1CCOCC1 (stereo not drawn)
N
